biological target: protein-protein interaction between Kras and SOS1 (biotin-tagged human Kras loaded with GDP, His-tagged human SOS1) (Homo sapiens (Human), UniProt P01116, G12D); test: Protein-protein interaction inhibition between Kras and SOS1 (KrasG12D-SOS PPI) using AlphaScreen; assay type: biochemical; conditions: AlphaScreen; biotin-tagged human Kras loaded with GDP, His-tagged human SOS1; read-out: KRAS G12D-SOS PPI IC50
Numbered stars: 1 amine (or outer) side, 2 acyl side, 3 side chain; on linkers, the order of the positions; unused ones are H or OH. Bridge positions count the residues as written; N and C are the ends. Square brackets hold non-standard residues; d marks the D form. Peptide text beside a SMILES is read from it. * marks the point of attachment. hPhe(3,5-F2-4-CF3) = N[C@@H](CCc1cc(F)c(C(F)(F)F)c(F)c1)C(=O)O; hPhe(3-Cl-4-CF3) = N[C@@H](CCc1ccc(C(F)(F)F)c(Cl)c1)C(=O)O; NEtPhe(4-CF3) = CCN[C@@H](Cc1ccc(C(F)(F)F)cc1)C(=O)O; 3Oxa8azabicyclo(3.2.1)octane = C1CC2COCC1N2*; NEtPhe(2-Cl) = CCN[C@@H](Cc1ccccc1Cl)C(=O)O; NMePhe(2-Cl) = CN[C@@H](Cc1ccccc1Cl)C(=O)O; NMedβ3hAla = C[C@H](CC(=O)[*:2])N(C)[*:1]; NMeNva(5,5-F2) = CN[C@@H](CCC(F)F)C(=O)O; NMeGly(cPent) = CN[C@H](C(=O)O)C1CCCC1; Pro(4,4-F2) = O=C(O)[C@@H]1CC(F)(F)CN1; NMeCha = CN[C@@H](CC1CCCCC1)C(=O)O; NMeChg = CN[C@H](C(=O)O)C1CCCCC1; NMeI = CC[C@H](C)[C@H](NC)C(=O)O; X17 = FC1(F)CN(*)CC(F)(F)C1(F)F; NMeD = CN[C@@H](CC(=O)O)C(=O)O; NMeL = CN[C@@H](CC(C)C)C(=O)O; NMeV = CN[C@H](C(=O)O)C(C)C; Morpholide = C1CN(*)CCO1; NMeA = CN[C@@H](C)C(=O)O; Piperidide = C1CCN(*)CC1; dNMeA = CN[C@H](C)C(=O)O; Ac5c = NC1(C(=O)O)CCCC1; Aze = O=C(O)[C@@H]1CCN1; Ac4c = NC1(C(=O)O)CCC1; Sar = CNCC(=O)O
Attribute: pIC50
When answering, recall that pIC50 equals minus log10 of the concentration in mol/L, and write that number alone.

Example compounds with recorded pIC50:
INSERT INTO assay_data (compound, reported_measurement) VALUES
  ('CC[C@H](C)[C@@H]1NC(=O)[C@H](CC(C)C)N(C)C(=O)C[C@@H](C)N(C)C(=O)[C@H](C2CCCC2)N(C)C(=O)C2(CCC2)NC(=O)[C@@H]2CC(F)(F)CN2C(=O)[C@H](CCc2cc(F)c(C(F)(F)F)c(F)c2)NC(=O)CN(C)C(=O)[C@H](Cc2ccc(C(F)(F)F)cc2)N(CC)C(=O)[C@@H]2CCN2C(=O)[C@H](C)N(C)C1=O [Compound 1049] (cyclo([Ac4c][NMeGly(cPent)][NMedβ3hAla][NMeL]I[NMeA][Aze][NEtPhe(4-CF3)][Sar][hPhe(3,5-F2-4-CF3)][Pro(4,4-F2)]))', 8.43),
  ('CC[C@H](C)[C@@H]1NC(=O)[C@H](C)N(C)C(=O)C[C@@H](C(=O)N2CCOCC2)N(C)C(=O)[C@H](C(C)C)N(C)C(=O)C2(CCCC2)NC(=O)[C@@H]2CCCN2C(=O)[C@H](CCc2ccc(C(F)(F)F)c(Cl)c2)NC(=O)[C@@H](C)N(C)C(=O)[C@H](CC2CCCCC2)N(C)C(=O)[C@@H]2CCN2C(=O)[C@H](C)N(C)C1=O [Compound 1664] ([NMeA]I[NMeA][Aze][NMeCha][dNMeA][hPhe(3-Cl-4-CF3)]P[Ac5c][NMeV][NMeD]-Morpholide; lactam N-11)', 8.06),
  ('CC[C@H](C)[C@@H]1NC(=O)[C@H](CC(C)C)N(C)C(=O)C[C@@H](C(=O)N2CC(F)(F)C(F)(F)C(F)(F)C2)NC(=O)[C@H]([C@@H](C)CC)N(C)C(=O)C2(CCCC2)NC(=O)[C@@H]2CCCN2C(=O)[C@H](CCc2ccc(C(F)(F)F)c(Cl)c2)NC(=O)CN(C)C(=O)[C@H](CC2CCCCC2)N(C)C(=O)CN(C)C(=O)CN(C)C1=O [Compound 1265] ([NMeL]I[Sar][Sar][NMeCha][Sar][hPhe(3-Cl-4-CF3)]P[Ac5c][NMeI]D-X17; lactam N-11)', 6.55),
  ('CC[C@H](C)[C@@H]1NC(=O)[C@H](CCC(F)F)N(C)C(=O)C[C@@H](C(=O)N2CCCCC2)N(C)C(=O)[C@H](C(C)C)N(C)C(=O)C2(CCCC2)NC(=O)[C@@H]2CCCN2C(=O)[C@H](CCc2ccc(C(F)(F)F)c(Cl)c2)NC(=O)CN(C)C(=O)[C@H](CC2CCCCC2)N(C)C(=O)[C@@H]2CCN2C(=O)[C@H](C)N(C)C1=O [Compound 1797] ([NMeNva(5,5-F2)]I[NMeA][Aze][NMeCha][Sar][hPhe(3-Cl-4-CF3)]P[Ac5c][NMeV][NMeD]-Piperidide; lactam N-11)', 8.43),
  ('CC[C@H](C)[C@@H]1NC(=O)[C@H](CC(C)C)N(C)C(=O)C[C@@H](C(=O)N2C3CCC2COC3)N(C)C(=O)[C@H]([C@@H](C)CC)N(C)C(=O)C2(CCCC2)NC(=O)[C@@H]2CCCN2C(=O)[C@H](CCc2ccc(C(F)(F)F)c(Cl)c2)NC(=O)CN(C)C(=O)[C@H](C2CCCC2)N(C)C(=O)[C@@H]2CCN2C(=O)[C@H](C)N(C)C1=O [Compound 1002] ([NMeL]I[NMeA][Aze][NMeGly(cPent)][Sar][hPhe(3-Cl-4-CF3)]P[Ac5c][NMeI][NMeD]-{3Oxa8azabicyclo(3.2.1)octane}; lactam N-11)', 8.68);

Need pIC50, item CC[C@H](C)[C@@H]1NC(=O)[C@H](CC(C)C)N(C)C(=O)C[C@@H](C(=O)N2CCCCC2)N(C)C(=O)[C@H](C2CCCCC2)N(C)C(=O)C2(CCCC2)NC(=O)[C@H](CCC(F)F)N(C)C(=O)[C@H](CCc2ccc(C(F)(F)F)c(Cl)c2)NC(=O)CN(C)C(=O)[C@H](CC2CCCCC2)N(C)C(=O)CN(C)C(=O)CN(C)C1=O [Compound 523] ([NMeL]I[Sar][Sar][NMeCha][Sar][hPhe(3-Cl-4-CF3)][NMeNva(5,5-F2)][Ac5c][NMeChg][NMeD]-Piperidide; lactam N-11)
8.24

Need pIC50, item CC[C@H](C)[C@@H]1NC(=O)[C@H](C)N(C)C(=O)C[C@@H](C(=O)N2CCOCC2)N(C)C(=O)[C@H](C(C)C)N(C)C(=O)C2(CCCC2)NC(=O)[C@H](Cc2ccccc2Cl)N(C)C(=O)[C@H](CCc2ccc(C(F)(F)F)c(Cl)c2)NC(=O)CN(C)C(=O)[C@H](CC2CCCCC2)N(C)C(=O)CN(C)C(=O)CN(C)C1=O [Compound 2020] ([NMeA]I[Sar][Sar][NMeCha][Sar][hPhe(3-Cl-4-CF3)][NMePhe(2-Cl)][Ac5c][NMeV][NMeD]-Morpholide; lactam N-11)
6.57

Need pIC50, item CC[C@H](C)[C@@H]1NC(=O)[C@H](C)N(C)C(=O)C[C@@H](C(=O)N(C)C)N(C)C(=O)[C@H](C(C)C)N(C)C(=O)C2(CCCC2)NC(=O)[C@H](Cc2ccccc2Cl)N(CC)C(=O)[C@H](CCc2ccc(C(F)(F)F)c(Cl)c2)NC(=O)CN(C)C(=O)[C@H](CC2CCCCC2)N(C)C(=O)CN(C)C(=O)CN(C)C1=O [Compound 2164] ([NMeA]I[Sar][Sar][NMeCha][Sar][hPhe(3-Cl-4-CF3)][NEtPhe(2-Cl)][Ac5c][NMeV][NMeD]-NMe2; lactam N-11)
6.52

* * *

biological target: protein-protein interaction between Kras and SOS1 (biotin-tagged human Kras loaded with GDP, His-tagged human SOS1) (Homo sapiens (Human), UniProt P01116, G12D); experiment: Protein-protein interaction inhibition between Kras and SOS1 (KrasG12D-SOS PPI) using AlphaScreen; format: biochemical; settings: AlphaScreen; biotin-tagged human Kras loaded with GDP, His-tagged human SOS1; read-out: KRAS G12D-SOS PPI IC50;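 further: kras produced in E. coli, Ni-coupled donor beads and streptavidin acceptor beads, excitation 680 nm with emission detected at 520–620 nm via singlet oxygen transfer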
Bridge positions count the residues as written; N and C are the ends. Square brackets hold non-standard residues; d marks the D form. Peptide text beside a SMILES is read from it. * marks the point of attachment. hPhe(3-Cl-4-CF3) = N[C@@H](CCc1ccc(C(F)(F)F)c(Cl)c1)C(=O)O; NMePhe(4-Me) = CN[C@@H](Cc1ccc(C)cc1)C(=O)O; NMeCha = CN[C@@H](CC1CCCCC1)C(=O)O; NMeD = CN[C@@H](CC(=O)O)C(=O)O; NMeL = CN[C@@H](CC(C)C)C(=O)O; NMeV = CN[C@H](C(=O)O)C(C)C; d(β3hA) = C[C@@H](N)CC(=O)O; NMeA = CN[C@@H](C)C(=O)O; Piperidide = C1CCN(*)CC1; Ac5c = NC1(C(=O)O)CCCC1; Sar = CNCC(=O)O
Attribute: IC50
# number only, unit nM dropped from output

INSERT INTO assay_data (molecule, reported_measurement) VALUES
  ('CC[C@H](C)[C@@H]1NC(=O)[C@H](C)N(C)C(=O)C[C@@H](C(=O)N2CCCCC2)N(C)C(=O)[C@H](C(C)C)N(C)C(=O)C2(CCCC2)NC(=O)[C@H](Cc2ccc(C)cc2)N(C)C(=O)[C@H](CCc2ccc(C(F)(F)F)c(Cl)c2)NC(=O)CN(C)C(=O)[C@H](CC2CCCCC2)N(C)C(=O)CN(C)C(=O)CN(C)C1=O [Compound 346] ([NMeA]I[Sar][Sar][NMeCha][Sar][hPhe(3-Cl-4-CF3)][NMePhe(4-Me)][Ac5c][NMeV][NMeD]-Piperidide; lactam N-11)', 11);

// next entry
Need IC50, item CC[C@H](C)[C@@H]1NC(=O)[C@H](CC(C)C)N(C)C(=O)C[C@@H](C)NC(=O)[C@H](CC(C)C)N(C)C(=O)C2(CCCC2)NC(=O)[C@H](CC(C)C)N(C)C(=O)[C@H](CCc2ccc(C(F)(F)F)c(Cl)c2)NC(=O)CN(C)C(=O)[C@H](CC2CCCCC2)N(C)C(=O)CN(C)C(=O)CN(C)C1=O [Compound 217] (cyclo([Ac5c][NMeL][d(β3hA)][NMeL]I[Sar][Sar][NMeCha][Sar][hPhe(3-Cl-4-CF3)][NMeL]))
66
